Where do the numbers come from? From patent US20240024520A1.

- target.under.test: T1, human complement component C5 (human, UniProt P01031 19-673; P01031 678-1676)
- T1 construct: mature; Mature C5 is a disulphide-linked beta and alpha chain cut from one precursor; Terbium-labelled in the FRET assays, biotinylated in part of the phage ELISA; also called human C5; C5-Tb
- protocol.summary: SPR (Biacore), C5, mean of n=3
I'd be grateful if you could share measured Kd for these entries.
Number in nM, nothing else.

Record request: Kd value, item hC3nb1-K57 loop 2 delta proline with C-terminal single-chain Fc tag (bispecific antibody, V domains shown, not shown: a dimerising Fc or GST, also called hC3Nb1Loop2ΔP) VH: WFRQASGGGSGCPPGYKSGVDCSPGSECKWGCYAVDGRRYGGYGADSGVSGGGSKEREFVATINRSGGRTYYADSVKGRFTISRDNGKNMVYLQMHSLKPEDTAIYYCAAGTGWSPQTDNEYNYWGQGTQVTVSS
0.864

Next entry: hC3nb1-K57 C-term with C-terminal single-chain Fc tag (bispecific antibody, V domains shown, not shown: a dimerising Fc or GST, also called hC3Nb1 C-Term) VH: QVQLVETGGGLVQAGGSLRLSCAASGSIFSLNAMGWFRQAPGKEREFVATINRSGGRTYYADSVKGRFTISRDNGKNMVYLQMHSLKPEDTAIYYCAAGTGWSPQTDNEYNYWGQGTQVTVSS
0.271

Next entry: hC3nb1-K57 loop 2 with C-terminal single-chain Fc tag (bispecific antibody, not shown: a dimerising Fc or GST, also called hC3Nb1 Loop 2) VHH: QVQLVETGGGLVQAGGSLRLSCAASGSIFSLNAMGWFRQAPSGGGSGCPPGYKSGVDCSPGSECKWGCYAVDGRRYGGYGADSGVSGGGSKEREFVATINRSGGRTYYADSVKGRFTISRDNGKNMVYLQMHSLKPEDTAIYYCAAGTGWSPQTDNEYNYWGQGTQVTVSS
0.321
